Test system: Caco-2
Assay: Caco-2 permeability
Assay type: in vitro ADME
Details: BtoA
Could you please report measured Caco-2 BtoA for the items listed next?

**Q:** Please supply the value of reported Caco-2 BtoA for the item CCCc1nc(C)c2c(=O)[nH]c(-c3cc(S(=O)(=O)N(C)C(C)(C)C(=O)N(C)C)ccc3OCC)nn12
**A:** 58.45 10^−6

**Q:** Please supply the value of reported Caco-2 BtoA for the item CCCc1nc(C)c2c(=O)[nH]c(-c3cc(S(=O)(=O)N(C)CC(=O)N(C)CC(=O)N(C)C)ccc3OCC)nn12
**A:** 25.95 10^−6

**Q:** Please supply the value of reported Caco-2 BtoA for the item CCCc1nc(C)c2c(=O)[nH]c(-c3cc(S(=O)(=O)N(C)[C@H](C)C(=O)N(C)C)ccc3OCC)nn12
**A:** 61.33 10^−6

**Q:** Please supply the value of reported Caco-2 BtoA for the item CCCc1nc(C)c2c(=O)[nH]c(-c3cc(S(=O)(=O)N(C)CC(=O)N(CC)CC)ccc3OCC)nn12
**A:** 77.41 10^−6

**Q:** Please supply the value of reported Caco-2 BtoA for the item CCCc1nc(C)c2c(=O)[nH]c(-c3cc(S(=O)(=O)N4CCCC4C(=O)N(C)C)ccc3OCC)nn12 (stereo not drawn)
**A:** 60.2 10^−6

**Q:** Please supply the value of reported Caco-2 BtoA for the item CCCc1nc(C)c2c(=O)[nH]c(-c3cc(S(=O)(=O)N(C)C(C)(C)C(=O)NC)ccc3OCC)nn12
**A:** 34.9 10^−6
